- System: Rif-resistant Mtb isolate (clinical isolate, rpoB mutant S531L)
- Format: cell-based, Mycobacterium tuberculosis
experimental.readout: MIC Rif-resistant Mtb isolate, turbidity read-out

[
  {
    "mol.smiles": "CC[C@H]1/C=C(\\C)[C@@H](O)C/C=C/C=C(\\CNc2ccc(C#N)cc2)C(=O)O[C@H]([C@@H](C)O)C/C=C(C)/C=C(\\C)[C@@H]1O[C@@H]1OC(C)(C)[C@@H](OC(=O)C(C)C)[C@H](O)[C@@H]1O",
    "reported": "16-32"
  },
  {
    "mol.smiles": "CC[C@H]1/C=C(\\C)[C@@H](O)C/C=C/C=C(\\CN(C)Cc2nnc(-c3ccccc3)o2)C(=O)O[C@H]([C@@H](C)O)C/C=C(C)/C=C(\\C)[C@@H]1O[C@@H]1OC(C)(C)[C@@H](OC(=O)C(C)C)[C@H](O)[C@@H]1O",
    "reported": "8 to 16 µg/mL"
  },
  {
    "mol.smiles": "CC[C@H]1/C=C(\\C)[C@@H](O)C/C=C/C=C(\\CNCc2nnc(-c3ccccc3)o2)C(=O)O[C@H]([C@@H](C)O)C/C=C(C)/C=C(\\C)[C@@H]1O[C@@H]1OC(C)(C)[C@@H](OC(=O)C(C)C)[C@H](O)[C@@H]1O",
    "reported": "4 to 8 µg/mL"
  },
  {
    "mol.smiles": "CC[C@H]1/C=C(\\C)[C@@H](O)C/C=C/C=C(\\CNCc2nnc(-c3ccc(C(F)(F)F)cc3)o2)C(=O)O[C@H]([C@@H](C)O)C/C=C(C)/C=C(\\C)[C@@H]1O[C@@H]1OC(C)(C)[C@@H](OC(=O)C(C)C)[C@H](O)[C@@H]1O",
    "reported": "4-8"
  },
  {
    "mol.smiles": "CC[C@H]1/C=C(\\C)[C@@H](O)C/C=C/C=C(\\CNCc2nnc(-c3ccc(OC)c(OC)c3Cl)o2)C(=O)O[C@H]([C@@H](C)O)C/C=C(C)/C=C(\\C)[C@@H]1O[C@@H]1OC(C)(C)[C@@H](OC(=O)C(C)C)[C@H](O)[C@@H]1O",
    "reported": "4 to 8 µg/mL"
  }
]

###

- Tested on: Rif-resistant Mtb isolate (clinical isolate, rpoB mutant S531L)
- Format: cell-based, Mycobacterium tuberculosis
experimental.readout: MIC Rif-resistant Mtb isolate, turbidity read-out

[
  {
    "compound": "CC[C@H]1/C=C(\\C)[C@@H](O)C/C=C/C=C(\\CNc2ccc(C#N)cn2)C(=O)O[C@H]([C@@H](C)O)C/C=C(C)/C=C(\\C)[C@@H]1O[C@@H]1OC(C)(C)[C@@H](OC(=O)C(C)C)[C@H](O)[C@@H]1O [compound 25]",
    "reported": "16-32"
  },
  {
    "compound": "CC[C@H]1/C=C(\\C)[C@@H](O)C/C=C/C=C(\\CNc2nc3ccccc3s2)C(=O)O[C@H]([C@@H](C)O)C/C=C(C)/C=C(\\C)[C@@H]1O[C@@H]1OC(C)(C)[C@@H](OC(=O)C(C)C)[C@H](O)[C@@H]1O [compound 9]",
    "reported": "8 to 16 µg/mL"
  },
  {
    "compound": "CC[C@H]1/C=C(\\C)[C@@H](O)C/C=C/C=C(\\CNc2nc(COc3ccccc3)cs2)C(=O)O[C@H]([C@@H](C)O)C/C=C(C)/C=C(\\C)[C@@H]1O[C@@H]1OC(C)(C)[C@@H](OC(=O)C(C)C)[C@H](O)[C@@H]1O [compound 10]",
    "reported": "8 to 16 µg/mL"
  },
  {
    "compound": "CC[C@H]1/C=C(\\C)[C@@H](O)C/C=C/C=C(\\CNc2nc(-c3ccccc3)cs2)C(=O)O[C@H]([C@@H](C)O)C/C=C(C)/C=C(\\C)[C@@H]1O[C@@H]1OC(C)(C)[C@@H](OC(=O)C(C)C)[C@H](O)[C@@H]1O [compound 13]",
    "reported": "8 to 16 µg/mL"
  }
]
